- STUDY_SYSTEM: T1, human TPBG antigen immobilized on a CM5 chip (human, UniProt Q13641 32-355, limits assumed)
- T1 sequence (looked up): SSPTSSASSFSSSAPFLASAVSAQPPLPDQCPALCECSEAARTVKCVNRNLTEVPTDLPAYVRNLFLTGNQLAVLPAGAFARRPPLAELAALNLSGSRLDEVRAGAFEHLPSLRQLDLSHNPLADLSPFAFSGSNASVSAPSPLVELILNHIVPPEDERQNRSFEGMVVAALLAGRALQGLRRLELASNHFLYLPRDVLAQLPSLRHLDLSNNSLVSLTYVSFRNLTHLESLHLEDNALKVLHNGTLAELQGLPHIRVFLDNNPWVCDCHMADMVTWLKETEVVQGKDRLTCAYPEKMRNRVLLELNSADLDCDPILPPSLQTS
- TEST: SPR (Biacore), human TPBG antigen immobilized on CM5 chip
READOUT_NAME: koff

Humanized antibody 28D4-4 (antibody, V domains shown, also called h28D4-4) VH: EVQLVESGGGLVKPGGSLRLSCAASGFTFSNYVMSWARQAPGKRLEWVAEISTGGSHTYYSDTVTGRFTISRDNAKKSLYLQMNSLRAEDTAVYYCIMFYYGSSYSMDYWGQGTTVTVSS VL: DIQMTQSPSSLSASVGDRVTITCRASQDIRNYLNWYQQKPGKAPKLLIYHTSRLHSGVPSRFSGSGSGTDFTFTISSLQPEDIATYYCQQGDTLPLTFGQGTRLEIK    3.58e-05 s⁻¹
Humanized antibody 12B12-12 (antibody, V domains shown, also called h12B12-12) VH: EVQLVESGGGLVQPGGSLRLSCAASGFTFSNFGMHWVRQAPGKGLEWVSYISSGSTSFYYADTVKGRFTISRDNAKNSLYLQMNSLRDEDTAVYYCARTNSLLRGFFDAWGQGTTVTVSS VL: DIVLTQTPLSLSVTPGQPASISCRASQSVSSSSYTYLHWYLQKPGQPPQLLIKSASNLESGVPDRFSGSGSGTDFTLKISRVEAEDVGVYYCQHSWEIPLTFGQGTKLEIK    2.29e-05 s⁻¹

Okay, now this binder:
Summary for this binder, Humanized antibody 28D4-8 (antibody, V domains shown, also called h28D4-8) VH: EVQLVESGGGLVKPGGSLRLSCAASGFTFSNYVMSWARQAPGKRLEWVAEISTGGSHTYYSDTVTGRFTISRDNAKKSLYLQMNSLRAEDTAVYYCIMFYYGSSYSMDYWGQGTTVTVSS VL: DIQMTQSPSSLSASVGDRVTITCRASQDIRNYLNWYQQKPGKAPKLLIYHTSRLHSGVPSRFSGSGSGTDYTFTISSLQPEDIATYYCQQGDTLPLTFGQGTRLEIK : koff is 3.01e-05 s⁻¹

Source: patent US20200062856A1
